test.protocol: Volume of distribution at steady state in beagle dog at 1 mg/kg, iv
Format: ADME, organism-based, Canis lupus familiaris
condition.summary: in vivo, read-out: Vdss
readout.name: Vd (L/kg)
Answer in L/kg, number only, no unit symbol.

Consider COc1cc2ncnc(Nc3cccc(Cl)c3F)c2cc1OC(=O)N1CCN(C)C[C@H]1C [AZD-3759] . Its measured Vd is 6.4

###

test.protocol: AUC (0 to 7 hrs) in Han Wistar rat brain at 2 mg/kg, po by LC-MS/MS analysis
Type: ADME, organism-based
Set-up: dose 2 mg/kg, time < 7 hr, route oral
condition.summary: Han Wistar, brain
readout.name: AUC(0-t) at 7 h (µM·h)
Answer in µM·h, number only, no unit symbol.

Consider COc1cc2ncnc(Nc3cccc(Cl)c3F)c2cc1OC(=O)N1C[C@@H]2C[C@H]1CN2C . Its measured AUC(0-t) at 7 h is 0.332

Consider COc1cc2ncnc(Nc3cccc(Cl)c3F)c2cc1OC(=O)N1CCN(C)C[C@@H]1C . Its measured AUC(0-t) at 7 h is 1.94

Consider COc1cc2ncnc(Nc3cccc(Cl)c3F)c2cc1OC(=O)N1CCN(C)C[C@H]1C . Its measured AUC(0-t) at 7 h is 3.69

###

test.target: Cytochrome P450 2C9 (Homo sapiens, UniProt P11712)
Sequence (P11712 whole entry): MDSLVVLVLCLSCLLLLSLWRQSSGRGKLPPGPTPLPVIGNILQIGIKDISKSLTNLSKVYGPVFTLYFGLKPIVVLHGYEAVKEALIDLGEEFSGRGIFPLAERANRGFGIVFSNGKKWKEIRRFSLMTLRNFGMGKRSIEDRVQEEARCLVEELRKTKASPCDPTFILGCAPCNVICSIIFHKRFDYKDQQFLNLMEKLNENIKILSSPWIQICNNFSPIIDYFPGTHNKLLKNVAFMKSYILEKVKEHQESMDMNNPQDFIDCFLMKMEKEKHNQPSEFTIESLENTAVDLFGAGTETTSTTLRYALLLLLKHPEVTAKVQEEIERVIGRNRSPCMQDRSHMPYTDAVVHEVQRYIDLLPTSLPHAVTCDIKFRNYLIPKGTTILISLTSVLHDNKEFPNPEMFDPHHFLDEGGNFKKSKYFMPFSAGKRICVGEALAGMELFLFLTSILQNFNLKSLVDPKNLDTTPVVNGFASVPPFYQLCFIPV
test.protocol: Inhibition of human CYP2C9
Type: ADME
readout.name: IC50

Given the compound COc1cc2ncnc(Nc3cccc(Cl)c3F)c2cc1CN1CCOCC1 and test system Cytochrome P450 2C9 (Homo sapiens, UniProt P11712), the measured IC50 is > 10 µM

###

test.protocol: Elimination half life in beagle dog at 1 mg/kg, iv
Format: ADME, organism-based, Canis lupus familiaris
condition.summary: in vivo, read-out: beta t1/2 (converted)
readout.name: half-life (min)
Answer in min, number only, no unit symbol.

Consider COc1cc2ncnc(Nc3cccc(Cl)c3F)c2cc1OC(=O)N1CCN(C)C[C@H]1C [AZD-3759] . Its measured half-life is 372

###

test.protocol: Fraction unbound in Han Wistar rat brain at 5 uM by equilibrium dialysis method
Format: ADME, tissue-based
condition.summary: Han Wistar, brain
readout.name: fraction unbound at 5 µM
Give the value as a plain number.

Consider COc1cc2ncnc(Nc3cccc(Cl)c3F)c2cc1OC(=O)N1CCN(C)C[C@H]1C . Its measured fraction unbound at 5 µM is 0.02

Consider COc1cc2ncnc(Nc3cccc(Cl)c3F)c2cc1OC(=O)N1CCOCC1 . Its measured fraction unbound at 5 µM is 0.026

Consider COc1cc2ncnc(Nc3ccc(F)c(Cl)c3)c2cc1OCCCN1CCOCC1 . Its measured fraction unbound at 5 µM is 0.0039

Consider COc1cc2ncnc(Nc3cccc(Cl)c3F)c2cc1OC(=O)N1CCN(C)C2CC21 (stereo in doubt; 1i) . Its measured fraction unbound at 5 µM is 0.019

Consider COc1cc2ncnc(Nc3cccc(Cl)c3F)c2cc1C(=O)N1CCOCC1 . Its measured fraction unbound at 5 µM is 0.088

Consider COc1cc2ncnc(Nc3cccc(Cl)c3F)c2cc1OC(=O)N1CCN(C)CC1 . Its measured fraction unbound at 5 µM is 0.025

Consider COc1cc2ncnc(Nc3cccc(Cl)c3F)c2cc1OC(=O)N1CCN(C)[C@H](C)C1 . Its measured fraction unbound at 5 µM is 0.018

Consider COc1cc2ncnc(Nc3cccc(Cl)c3F)c2cc1OC(=O)N1CC[C@@H](N(C)C)C1 . Its measured fraction unbound at 5 µM is 0.023

Consider COc1cc2ncnc(Nc3cccc(Cl)c3F)c2cc1CN1CCOCC1 . Its measured fraction unbound at 5 µM is 0.03

Consider COc1cc2ncnc(Nc3cccc(Cl)c3F)c2cc1OC(=O)N1CCN(C)[C@@H](C)C1 . Its measured fraction unbound at 5 µM is 0.016

Consider C#Cc1cccc(Nc2ncnc3cc(OCCOC)c(OCCOC)cc23)c1 . Its measured fraction unbound at 5 µM is 0.029

Consider COc1cc2ncnc(Nc3ccc(F)c(Cl)c3)c2cc1N1CCOCC1 . Its measured fraction unbound at 5 µM is 0.0083

Consider COc1cc2ncnc(Nc3cccc(Cl)c3F)c2cc1OC(=O)N1C[C@@H]2C[C@H]1CN2C . Its measured fraction unbound at 5 µM is 0.016

Consider COc1cc2ncnc(Nc3cccc(Cl)c3F)c2cc1OC(=O)N1CCN(C)C[C@@H]1C . Its measured fraction unbound at 5 µM is 0.015

Consider COc1cc2ncnc(Nc3cccc(Cl)c3F)c2cc1OC(=O)N1CC[C@H](N(C)C)C1 . Its measured fraction unbound at 5 µM is 0.024

Consider CN(C)C/C=C/C(=O)Nc1cc2c(Nc3ccc(F)c(Cl)c3)ncnc2cc1O[C@H]1CCOC1 . Its measured fraction unbound at 5 µM is 0.0054

Consider COc1cc2ncnc(Nc3cccc(Cl)c3F)c2cc1N1CCOCC1 . Its measured fraction unbound at 5 µM is 0.022

###

test.protocol: AUC (0 to 7 hrs) in Han Wistar rat blood at 2 mg/kg, po by LC-MS/MS analysis
Assay type: ADME, organism-based
Parameters: dose 2 mg/kg, time < 7 hr, route oral
condition.summary: Han Wistar, blood
What AUC(0-t) at 7 h was measured for each of the following?
Answer in µM·h, number only, no unit symbol.

Consider COc1cc2ncnc(Nc3cccc(Cl)c3F)c2cc1OC(=O)N1C[C@@H]2C[C@H]1CN2C . Its measured AUC(0-t) at 7 h is 0.454

Consider COc1cc2ncnc(Nc3cccc(Cl)c3F)c2cc1OC(=O)N1CCN(C)C[C@H]1C [AZD-3759] . Its measured AUC(0-t) at 7 h is 1.23

Consider COc1cc2ncnc(Nc3cccc(Cl)c3F)c2cc1OC(=O)N1CCN(C)C[C@@H]1C . Its measured AUC(0-t) at 7 h is 0.805

Consider COc1cc2ncnc(Nc3cccc(Cl)c3F)c2cc1OC(=O)N1CCN(C)CC1 . Its measured AUC(0-t) at 7 h is 0.722

Consider COc1cc2ncnc(Nc3cccc(Cl)c3F)c2cc1OC(=O)N1CCN(C)C2CC21 (stereo in doubt; 1i) . Its measured AUC(0-t) at 7 h is 0.786

Consider COc1cc2ncnc(Nc3cccc(Cl)c3F)c2cc1OC(=O)N1CCOCC1 . Its measured AUC(0-t) at 7 h is 0.042

Consider COc1cc2ncnc(Nc3cccc(Cl)c3F)c2cc1C(=O)N1CCOCC1 . Its measured AUC(0-t) at 7 h is 1.63

Consider COc1cc2ncnc(Nc3cccc(Cl)c3F)c2cc1N1CCOCC1 . Its measured AUC(0-t) at 7 h is 0.033

Consider COc1cc2ncnc(Nc3cccc(Cl)c3F)c2cc1CN1CCOCC1 . Its measured AUC(0-t) at 7 h is 0.834

###

What AUC(0-t) at 24 h was measured for each of the following?
test.protocol: AUC(0 to 24 hrs) in Han Wistar rat at 2 mg/kg, po
Format: ADME, organism-based
Set-up: dose 2 mg/kg, time < 24 hr, route oral
condition.summary: Han Wistar, in vivo
Answer with the figure and its unit, nothing else.

Consider COc1cc2ncnc(Nc3cccc(Cl)c3F)c2cc1OC(=O)N1CCN(C)[C@@H](C)C1 . Its measured AUC(0-t) at 24 h is 0.789 µM·h

Consider COc1cc2ncnc(Nc3cccc(Cl)c3F)c2cc1OC(=O)N1CCN(C)C2CC21 (stereo in doubt; 1i) . Its measured AUC(0-t) at 24 h is 1.57 µM·h

Consider COc1cc2ncnc(Nc3cccc(Cl)c3F)c2cc1OC(=O)N1CCN(C)C[C@@H]1C . Its measured AUC(0-t) at 24 h is 2.95 µM·h

Consider COc1cc2ncnc(Nc3cccc(Cl)c3F)c2cc1OC(=O)N1CCN(C)C[C@H]1C . Its measured AUC(0-t) at 24 h is 3.8 µM·h

Consider COc1cc2ncnc(Nc3cccc(Cl)c3F)c2cc1OC(=O)N1CCN(C)[C@H](C)C1 . Its measured AUC(0-t) at 24 h is 1.04 µM·h

###

test.target: Cytochrome P450 2C8 (Homo sapiens, UniProt P10632)
Sequence (P10632 whole entry): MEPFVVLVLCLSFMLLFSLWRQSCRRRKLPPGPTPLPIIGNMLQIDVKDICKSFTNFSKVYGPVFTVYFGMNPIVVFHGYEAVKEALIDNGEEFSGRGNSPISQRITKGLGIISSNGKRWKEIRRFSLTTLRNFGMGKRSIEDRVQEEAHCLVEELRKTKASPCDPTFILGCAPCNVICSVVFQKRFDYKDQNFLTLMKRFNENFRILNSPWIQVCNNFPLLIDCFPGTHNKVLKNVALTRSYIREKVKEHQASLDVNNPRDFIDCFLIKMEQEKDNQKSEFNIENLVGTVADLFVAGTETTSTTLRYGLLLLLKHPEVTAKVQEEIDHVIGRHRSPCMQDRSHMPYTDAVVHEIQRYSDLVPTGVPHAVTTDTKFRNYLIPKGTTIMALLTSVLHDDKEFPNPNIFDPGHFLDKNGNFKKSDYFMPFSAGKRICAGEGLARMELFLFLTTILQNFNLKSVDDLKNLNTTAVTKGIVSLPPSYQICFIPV
readout.name: IC50

Given the compound COc1cc2ncnc(Nc3cccc(Cl)c3F)c2cc1OC(=O)N1CCN(C)C[C@H]1C and test system Cytochrome P450 2C8 (Homo sapiens, UniProt P10632), the measured IC50 is > 50 µM

###

What Kp uu was measured for each of the following?
test.protocol: Ratio of unbound AUC (0 to 24 hrs) in CSF to blood of Han Wistar rat at 20 mg/kg, po by LC-MS/MS analysis
Assay type: ADME, organism-based
condition.summary: CSF and blood
Give the value as a plain number.

Consider C#Cc1cccc(Nc2ncnc3cc(OCCOC)c(OCCOC)cc23)c1 . Its measured Kp uu is 0.29

Consider COc1cc2ncnc(Nc3ccc(F)c(Cl)c3)c2cc1OCCCN1CCOCC1 . Its measured Kp uu is 0.088

Consider CN(C)C/C=C/C(=O)Nc1cc2c(Nc3ccc(F)c(Cl)c3)ncnc2cc1O[C@H]1CCOC1 . Its measured Kp uu is 0.27
